assay: Solubility; assay type: physicochemical; conditions: under conditions of the haemolysis experiment; read-out: solubility limit (insoluble above)

{"columns": ["Molecule", "solubility"],
 "data": [
  ["COC(=O)[C@H]1[C@@H]2C[C@@H](O[C@@H]3O[C@H](C)[C@@H](O)[C@H](N(C)CC4(O)OC[C@@H](O)[C@@H](O)[C@@H]4O)[C@@H]3O)/C=C/C=C/C=C/C=C/C=C/C=C/C=C/[C@H](C)[C@@H](O)[C@@H](C)[C@H](C)OC(=O)C[C@H](O)C[C@H](O)CC[C@@H](O)[C@H](O)C[C@H](O)C[C@](O)(C[C@@H]1O)O2 (single isomer, unassigned) [Example I]", "≤ 350 µg/mL"]
]}

* * *

test: In vivo toxicity, maximum tolerated dose (MTD); details: mouse, in vivo, ip, intraperitoneal, single dose, Balb/c mice, in 5% glucose; read-out: maximum single tolerated dose (MTD)

{"columns": ["Compound", "MTD"],
 "data": [
  ["COC(=O)[C@H]1[C@@H]2C[C@@H](O[C@@H]3O[C@H](C)[C@@H](O)[C@H](N(C)CC4(O)OC[C@@H](O)[C@@H](O)[C@@H]4O)[C@@H]3O)/C=C/C=C/C=C/C=C/C=C/C=C/C=C/[C@H](C)[C@@H](O)[C@@H](C)[C@H](C)OC(=O)C[C@H](O)C[C@H](O)CC[C@@H](O)[C@H](O)C[C@H](O)C[C@](O)(C[C@@H]1O)O2 (stereo partly shown) [Example X]", "> 200 mg/kg"]
]}

* * *

In this section, each of the compounds is paired with its reported HC50 at 0.5 h.
test: In vitro toxicity (haemolysis of human erythrocytes); type: cell-based; conditions: human, erythrocytes, 30 minutes at 37° C., read-out: EH50 (concentration at which 50% of hemolysis occurred)

{"columns": ["Compound", "Readout unit", "Relation operator", "HC50 at 0.5 h"],
 "data": [
  ["COC(=O)[C@H]1[C@@H]2C[C@@H](O[C@@H]3O[C@H](C)[C@@H](O)[C@H](N(C)CC4(O)OC[C@@H](O)[C@@H](O)[C@@H]4O)[C@@H]3O)/C=C/C=C/C=C/C=C/C=C/C=C/C=C/[C@H](C)[C@@H](O)[C@@H](C)[C@H](C)OC(=O)C[C@H](O)C[C@H](O)CC[C@@H](O)[C@H](O)C[C@H](O)C[C@](O)(C[C@@H]1O)O2 (single isomer, unassigned)", "µg/mL", ">", 350],
  ["C[C@@H]1[C@H](O)[C@@H](C)/C=C/C=C/C=C/C=C/C=C/C=C/C=C/[C@H](O[C@@H]2O[C@H](C)[C@@H](O)[C@H](N)[C@@H]2O)C[C@@H]2O[C@](O)(C[C@@H](O)C[C@@H](O)[C@H](O)CC[C@@H](O)C[C@@H](O)CC(=O)O[C@H]1C)C[C@H](O)[C@H]2C(=O)O [amphotericin B, reference compound]", "µg/mL", "=", 1.5]
]}
